- Test system: P. aeruginosa
- PROTOCOL: Time-kill assay of GN lysin activity
- Type: cell-based, Pseudomonas aeruginosa
- STUDY_CONDITIONS: CAA/HuS; lysin 10 μg/mL; T = 0 7.8; buffer control 7.2; limit of detection 3.7; ‡ indicates bactericidal activity

{"columns": ["MOLECULE", "Log10 CFU/mL T = 3 hr"],
 "data": [
  ["GN92: Modified GN4, N-terminal peptide KFFKFFKFFK with linker, SEQ ID NO: 7 (protein) KFFKFFKFFKAGAGAGAGAGAGAGAGASMRTSQRGIDLIKSFEGLRLSAYQDSVGVWTIGYGTTRGVTRYMTITVEQAERMLSNDIQRFEPELDRLAKVPLNQNQWDALMSFVYNLGAANLASSTLLKLLNKGDYQGAADQFPRWVNAGGKRLDGLVKRRAAERALFLEPLS", "<3.7‡ Log10 CFU/mL"],
  ["GN4: Native lysin, YP_002284361.1/Lysozyme, SEQ ID NO: 3; first disclosed in WO/2017/049233 (protein, Pseudomonas phage PAJU2) MRTSQRGIDLIKSFEGLRLSAYQDSVGVWTIGYGTTRGVTRYMTITVEQAERMLSNDIQRFEPELDRLAKVPLNQNQWDALMSFVYNLGAANLASSTLLKLLNKGDYQGAADQFPRWVNAGGKRLDGLVKRRAAERALFLEPLS", "<3.7‡ Log10 CFU/mL"],
  ["GN3: Native lysin, WP_012273008.1/Lysozyme, SEQ ID NO: 2 (protein, listed as Pseudomonas putida) MRTSQRGLSLIKSFEGLRLQAYQDSVGVWTIGYGTTRGVKAGMKISKDQAERMLLNDVQRFEPEVERLIKVPLNQDQWDALMSFTYNLGAANLESSTLRRLLNAGNYAAAAEQFPRWNKAGGQVLAGLTRRRAAERELFLGAA", "<3.7‡ Log10 CFU/mL"]
]}
